Test system: SK-MEL-28 melanoma
Experiment: NCI tumour cell line growth inhibition, 48 h
measured-metric: TGI (µM)

compound: COc1ccc(CCN2CCC(CN(C)Cc3cnn(-c4ccccc4)c3)CC2)cc1
system-under-test: SK-MEL-28 melanoma
endpoint-unit: µM
relational-operator: =
recorded-result: 7.53

compound: CCOc1ccc2c(c1)c(CC(=O)O)cn2C
system-under-test: SK-MEL-28 melanoma
endpoint-unit: µM
relational-operator: >
recorded-result: 100

compound: CC(=O)O[C@H]1CC[C@@]2(C)C(=C/C(=N/OCCN3CCCC3)[C@H]3[C@@H]4CC[C@H](OC(C)=O)[C@@]4(C)CC[C@@H]32)C1
system-under-test: SK-MEL-28 melanoma
endpoint-unit: µM
relational-operator: =
recorded-result: 64.1

compound: CCCCNc1ccc(Nc2ccccc2)cc1
system-under-test: SK-MEL-28 melanoma
endpoint-unit: µM
relational-operator: =
recorded-result: 60.2

compound: CCOC(=O)c1c(SC(=O)c2ccc(OC)cc2)n(-c2ccccc2)c(=S)n(-c2ccccc2)c1=O
system-under-test: SK-MEL-28 melanoma
endpoint-unit: µM
relational-operator: >
recorded-result: 100

compound: CCc1c(-c2ccc(OC)cc2)oc(OC)c(C)c1=O
system-under-test: SK-MEL-28 melanoma
endpoint-unit: µM
relational-operator: >
recorded-result: 100

compound: C/C(=C/CC[C@]1(CO)CC[C@]2(C)[C@H](CC[C@@H]3[C@@]4(C)CC[C@H](OC5OC(CO)C(O)C(O)C5OC5OC(CO)C(O)C(O)C5O)C(C)(C)[C@@H]4CC[C@]32C)[C@H]1O)CO (stereo not given in full)
system-under-test: SK-MEL-28 melanoma
endpoint-unit: µM
relational-operator: >
recorded-result: 100

compound: CC(=O)c1ccc(NC(=O)COC(=O)c2cccc3c(=O)c4ccccc4[nH]c23)cc1
system-under-test: SK-MEL-28 melanoma
endpoint-unit: µM
relational-operator: >
recorded-result: 100

compound: c1ccc(OCc2nnc3n2N=C(c2ccccc2)CS3)cc1
system-under-test: SK-MEL-28 melanoma
endpoint-unit: µM
relational-operator: >
recorded-result: 100

compound: COC(=O)C(C(=O)OC)C(Br)C(Br)C(Br)c1ccccc1 (stereo not given)
system-under-test: SK-MEL-28 melanoma
endpoint-unit: µM
relational-operator: =
recorded-result: 25.3

###

Test system: SNB-75 CNS
Assay: NCI tumour cell line growth inhibition, 48 h
Parameter threshold = 20 µM. Response is 1 when TGI meets or exceeds it, else -1.

molecule: Cc1ccc(S(=O)(=O)N/N=C/C(C)C)cc1
class: 1

molecule: Cc1cc(Cl)ccc1C(=O)c1ccc2ccccc2c1C(=O)O
class: 1

molecule: CCN1CCC(CNC(=O)c2ccc(N)cc2)N1CC (configuration not stated)
class: 1

molecule: O=C(Nc1ccc(S(=O)(=O)/N=c2\ncccn2C(=O)C(C(F)(F)F)C(F)(F)F)cc1)C(C(F)(F)F)C(F)(F)F
class: 1

molecule: O=C1N(Cc2ccccc2Cl)c2ccccc2C12NN=C(c1cccc(Cl)c1)S2 (configuration not stated)
class: -1

molecule: Cc1cccc2c3c(sc12)C(c1ccc(F)cc1)C(C#N)=C(N)O3 (configuration not stated)
class: -1

molecule: C#CCN(Cc1ccc2nc(-c3ccccc3)c(N)nc2c1)c1cc(OC)c(OC)c(OC)c1
class: 1

molecule: O=C(NO)NCCCl
class: 1

molecule: COc1cnc2c(c1)C(=O)c1c-2n(CCCN2CCC(O)CC2)c(=O)c2cc(Cl)ccc12
class: 1

molecule: Cc1cc(O)c(C2=NN(c3ccc(S(N)(=O)=O)cc3)C(/C=C/c3ccccc3)C2)cc1Cl (configuration not stated)
class: -1

molecule: COc1ccc(-c2c(-c3ccccc3)c(C)nc3nc(SC)nc(SC)c23)cc1OC
class: 1

molecule: CN(C)c1cccc(F)c1C(=O)NC(=O)Nc1ccc(Cl)cc1
class: -1

molecule: COc1nc2ccc(COc3ccc(C(=O)O)cc3)cc2nc1OC
class: 1

molecule: NC(=O)NC1C(C(=O)O)N(Cc2ccccc2)C(=O)N1Cc1ccccc1 (configuration not stated)
class: 1

molecule: Clc1ccc(C[P+](c2ccccc2)(c2ccccc2)c2ccccc2)cc1Cl
class: -1

molecule: C=C=CC(NC(=O)c1ccccc1)(C(=O)O)C(F)(F)F (configuration not stated)
class: 1

molecule: NCCN1C(=O)c2ccccc2C1c1ccc(Cl)cc1 (configuration not stated)
class: 1

molecule: Nc1nc(Cl)c(Cl)c(NCC2(O)CCC2)n1
class: 1

molecule: COc1ccc(C(=O)c2sc3nc(-c4cccs4)ccc3c2N)cc1OC
class: 1

molecule: C(=Nc1ccc(-c2nc3ccccc3s2)cc1)c1ccc[nH]1
class: 1

molecule: COc1cccc(SSc2cccc(OC)c2C(=O)O)c1C(=O)O
class: 1

molecule: Cc1nc2sc(C(=O)c3ccc(Cl)cc3)c(N)c2c(-c2ccccc2Cl)c1C(=O)Nc1ccccc1
class: 1

molecule: COC(=O)C(C(=O)OC)C(Br)C(Br)C(Br)c1ccccc1 (configuration not stated)
class: 1

molecule: CC(=O)OC1[C@H](OC(C)=O)C2=C(C)[C@@H](OC(C)=O)C[C@@]2(C(C)(C)O)[C@@H](OC(C)=O)[C@H]2[C@@]1(C)[C@@H](OC(C)=O)CC(OC(C)=O)[C@]21CO1 (some centres not stated)
class: 1

molecule: CCCCOP(C)(=O)C(NC(=O)OCC)(C(F)(F)F)C(F)(F)F (configuration not stated)
class: 1

molecule: O=C(Cn1c(C(=O)c2ccccc2)nc2ccccc21)c1ccccc1
class: 1

molecule: O=C(/C(=C\I)c1ccccc1)c1ccccc1
class: 1

molecule: COC1CC(N)C(O)C(C)O1 (configuration not stated)
class: 1

molecule: CN1CCN(c2nc(-c3csc(-c4cccs4)n3)cc3ccccc23)CC1
class: -1

molecule: COc1cc(Cl)cc(-c2nn(-c3cccc(NC(=O)Nc4ccc(Cl)c(Cl)c4)c3)cc2-c2ccncc2)c1
class: 1

molecule: CCOC(=O)/C=C(\C(=O)OCC)n1cc(C)c(=O)n(Cc2cnnn2COCCOC(C)=O)c1=O
class: 1

molecule: Cc1ccc(C2NC(=O)c3ccccc3N2)c(C)c1 (configuration not stated)
class: -1

molecule: Cc1ccc(C2(c3ccc(F)cc3)OC(=O)c3ccccc32)c(O)c1 (configuration not stated)
class: 1

molecule: COc1cc2c(/C=C3/C(=O)Nc4ccc(Cl)cc43)c(Cl)[nH]c2cc1C
class: -1

molecule: Cc1[nH]c2cc(F)ccc2c1-c1nc2c3cccnc3c3ncccc3c2[nH]1
class: -1

molecule: CC(=O)/C=C/c1ccc(OCc2ccc(Cl)cc2)cc1
class: 1

molecule: CC(=O)NC1=NC(=O)/C(=C/c2ccc(/C=C3/C(=O)N=C(NC(C)=O)N3C)cc2)N1C
class: 1

molecule: CC1SC2(CCCCC2)N(NC(=O)c2[nH]c3ccc(Br)cc3c2-c2ccccc2)C1=O (configuration not stated)
class: 1

###

System: PC-3 prostate
Assay: NCI tumour cell line growth inhibition, 48 h; in the data active means GI50 below about 0.43 µM; inactive means the rest
Classes used: active, inactive

compound: CC(C)(C)OC(=O)NCc1cccc(N=C=S)c1
class: inactive

compound: O=C1CC/C(=C/COc2cc(=O)oc3ccccc23)O1
class: inactive

compound: O=Cc1ccc(-c2ccc(-c3nc4ccccc4s3)cc2)s1
class: inactive

compound: COCCOCCOCc1n(Cc2ccc3ccccc3n2)c2ccccc2[n+]1Cc1ccc2ccccc2n1
class: inactive

compound: COc1cnc2c(c1)C(=O)c1c-2n(CCCN2CCC(O)CC2)c(=O)c2cc(Cl)ccc12
class: inactive

compound: Cc1cc(O)c(C2=NN(c3ccc(S(N)(=O)=O)cc3)C(/C=C/c3ccccc3)C2)cc1Cl (centres undefined)
class: inactive

compound: CN1CCN(c2nc(-c3csc(-c4cccs4)n3)cc3ccccc23)CC1
class: inactive

compound: NC1(Cc2ccc(Cl)cc2)CCN(c2ncnc3[nH]ccc23)CC1
class: inactive

compound: Cc1cccc2c3c(sc12)C(c1ccc(F)cc1)C(C#N)=C(N)O3 (centres undefined)
class: active

###

Tested on: RPMI-8226 leukemia
Assay: NCI tumour cell line growth inhibition, 48 h
measured-metric: TGI (µM)

compound: COC(=O)Nc1nc2ccc(S(=O)(=O)N3CCOCC3)cc2[nH]1
system-under-test: RPMI-8226 leukemia
relational-operator: >
recorded-result: 100
--
compound: CC1=CP(=O)(c2c(C(C)C)cc(C(C)C)cc2C(C)C)CCC1Cl (stereo unspecified)
system-under-test: RPMI-8226 leukemia
relational-operator: =
recorded-result: 40.9
--
compound: C=C=CC(NC(=O)c1ccccc1)(C(=O)O)C(F)(F)F (stereo unspecified)
system-under-test: RPMI-8226 leukemia
relational-operator: >
recorded-result: 100
--
compound: O=C1N(Cc2ccccc2Cl)c2ccccc2C12NN=C(c1cccc(Cl)c1)S2 (stereo unspecified)
system-under-test: RPMI-8226 leukemia
relational-operator: =
recorded-result: 6.04
--
compound: Cc1cc2nc3c(C#N)c4c(c(-c5ccc(Cl)cc5)n3c2cc1C)CCC4
system-under-test: RPMI-8226 leukemia
relational-operator: =
recorded-result: 74.4
--
compound: COc1ccc(C(=O)C#Cc2c[nH]c(=O)[nH]c2=O)cc1
system-under-test: RPMI-8226 leukemia
relational-operator: =
recorded-result: 41.6
--
compound: COc1c(N2CCN(CN3C(=O)C(=O)c4cc(Cl)ccc43)C(C)C2)c(F)cc2c(=O)c(C(=O)O)cn(C3CC3)c12 (stereo unspecified)
system-under-test: RPMI-8226 leukemia
relational-operator: =
recorded-result: 25.7
--
compound: COC(=O)Cc1cc(=O)[nH]c2c1C(=O)CCC2
system-under-test: RPMI-8226 leukemia
relational-operator: >
recorded-result: 100
--
compound: COc1ccccc1C1(c2c(OC)c(=O)c2=O)SCCCS1
system-under-test: RPMI-8226 leukemia
relational-operator: >
recorded-result: 100
--
compound: CCOC(=O)Nc1cc2ccccc2c(N=Nc2ccccc2)c1O
system-under-test: RPMI-8226 leukemia
relational-operator: >
recorded-result: 100
--
compound: CC(C)(C)OC(=O)NCc1cccc(N=C=S)c1
system-under-test: RPMI-8226 leukemia
relational-operator: =
recorded-result: 56.7
